Molecular target: Transient receptor potential cation channel subfamily V member 1 (Homo sapiens, UniProt Q8NER1)
Sequence (Q8NER1 whole entry): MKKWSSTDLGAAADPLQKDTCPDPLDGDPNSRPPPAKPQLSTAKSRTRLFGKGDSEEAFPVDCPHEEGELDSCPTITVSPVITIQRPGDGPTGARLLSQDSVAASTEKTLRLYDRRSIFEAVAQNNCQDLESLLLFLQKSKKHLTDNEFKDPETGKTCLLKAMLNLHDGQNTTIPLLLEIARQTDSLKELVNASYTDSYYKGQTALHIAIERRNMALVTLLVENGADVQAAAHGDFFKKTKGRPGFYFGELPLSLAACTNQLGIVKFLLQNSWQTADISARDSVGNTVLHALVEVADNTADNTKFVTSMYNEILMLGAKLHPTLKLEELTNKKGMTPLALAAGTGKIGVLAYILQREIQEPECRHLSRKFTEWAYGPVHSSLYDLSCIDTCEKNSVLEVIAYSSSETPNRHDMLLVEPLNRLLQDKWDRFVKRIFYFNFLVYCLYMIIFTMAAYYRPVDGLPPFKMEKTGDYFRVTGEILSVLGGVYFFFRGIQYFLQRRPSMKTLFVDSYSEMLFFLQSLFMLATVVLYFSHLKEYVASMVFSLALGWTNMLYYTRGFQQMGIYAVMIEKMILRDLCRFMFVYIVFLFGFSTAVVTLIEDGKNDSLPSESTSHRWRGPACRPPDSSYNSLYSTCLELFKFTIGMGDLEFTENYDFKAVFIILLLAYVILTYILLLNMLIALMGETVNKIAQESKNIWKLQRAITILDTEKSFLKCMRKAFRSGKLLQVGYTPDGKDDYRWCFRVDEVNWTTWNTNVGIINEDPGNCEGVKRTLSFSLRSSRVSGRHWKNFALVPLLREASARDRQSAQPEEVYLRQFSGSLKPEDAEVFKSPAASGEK
Experiment: Antagonist activity at low pH-induced human recombinant TRPV1 expressed in CHO-K1 cells co-expressing aequorin at 50 uM incubated for 2.5 mins in presence of ATP followed by hydrochloride addition at pH 5 by luminescence assay relative to control
Type: cell-based
assay.endpoint: inhibition (%)
State the answer as a number, implicitly in %.

Take a look at these entries with their results.
Clc1cccc(-n2cc(CN3CCc4c([nH]c5ccccc45)C3)nn2)c1 :: 71
CC(C)c1ccccc1-n1cc(CN2CCc3c([nH]c4ccccc34)C2)nn1 :: 67
c1ccc(-n2cc(CN3CCc4c([nH]c5ccccc45)C3)nn2)cc1 :: 68
COc1ccc(-n2cc(CN3CCc4c([nH]c5ccccc45)C3)nn2)cc1OC :: 74
Cc1ccc(-n2cc(CN3CCc4c([nH]c5ccccc45)C3)nn2)cc1Cl :: 48
FC(F)(F)c1ccccc1-n1cc(CN2CCc3ccccc32)nn1 :: 55

With those in mind, consider the next compound.
// query # input compound: `Cc1ccc(-n2cc(CN3CCc4c([nH]c5ccccc45)C3)nn2)c([N+](=O)[O-])c1` ; wanted: its inhibition
// result 71

---

Target: Transient receptor potential cation channel subfamily V member 1 (Homo sapiens, UniProt Q8NER1)
Assay: Antagonist activity at low pH-induced human recombinant TRPV1 expressed in CHO-K1 cells co-expressing aequorin at 50 uM incubated for 2.5 mins in presence of ATP followed by hydrochloride addition at pH 5 by luminescence assay relative to control
Type: cell-based
assay.endpoint: inhibition (%)
State the answer as a number, implicitly in %.

Take a look at these entries with their results.
Clc1ccc(Cl)c(-n2cc(CN3CCc4c([nH]c5ccccc45)C3)nn2)c1 :: 79
CC(C)(C)c1ccc(-n2cc(CN3CCc4cc(Cl)ccc43)nn2)cc1 :: 24
FC(F)(F)c1ccccc1-n1cc(CN2CCc3c([nH]c4ccccc34)C2)nn1 :: 58

// query # input compound: `CC(C)c1ccccc1-n1cc(CN2CCc3ccccc32)nn1` ; wanted: its inhibition
// result 39

---

Target: Transient receptor potential cation channel subfamily V member 1 (Homo sapiens)
Experiment: Antagonist activity at low pH-induced human recombinant TRPV1 expressed in CHO-K1 cells co-expressing aequorin at 50 uM incubated for 2.5 mins in presence of ATP followed by hydrochloride addition at pH 5 by luminescence assay relative to control
Format: cell-based
The following molecules are listed with their measured inhibition values.

Clc1ccc(-n2cc(CN3CCc4ccccc43)nn2)cc1 :: 42%

// query Entry `CC(C)(C)c1ccc(-n2cc(CN3CCc4ccccc43)nn2)cc1` , system Transient receptor potential cation channel subfamily V member 1 (Homo sapiens): what inhibition was measured?
// result 32%

// query Another molecule: `O=[N+]([O-])c1cc(Cl)ccc1-n1cc(CN2CCc3c([nH]c4ccccc34)C2)nn1`
// result 67%

// query Another molecule: `COc1ccc(-n2cc(CN3CCc4c([nH]c5ccccc45)C3)nn2)cc1`
// result 55%
